# Test system: 299254-011-R-J1-PDC complex spheroid viability
# ASSAY_NOTES: Anticancer human tumor 299254-011-R-J1-PDC patient-derived melanoma cell line growth inhibition [POLQ]
# SETUP_CONDITIONS: second compound 1 µM; first compound 0.01 µM; stronger effect = lower value
Catalogue of viability, T/C readings, one per entry.
The response must be a number in % with no trailing unit.

Example cases with answers are listed next.
molecule="CC[C@@]1(O)C(=O)OCc2c1cc1n(c2=O)Cc2cc3c(CN(C)C)c(O)ccc3nc2-1 + COC1C(OC(N)=O)C(O)C(Oc2ccc3c(O)c(NC(=O)c4ccc(O)c(CC=C(C)C)c4)c(=O)oc3c2C)OC1(C)C" units_of_measure=% reported_measurement=110
molecule="Cn1ncnc1[C@H]1c2n[nH]c(=O)c3cc(F)cc(c23)N[C@@H]1c1ccc(F)cc1 + COC1C(OC(N)=O)C(O)C(Oc2ccc3c(O)c(NC(=O)c4ccc(O)c(CC=C(C)C)c4)c(=O)oc3c2C)OC1(C)C" units_of_measure=% reported_measurement=118

Here's the next entry for you.
[ask] Value lookup for viability, T/C; key = COc1cccc(OCCCN)c1-c1cc(Nc2cnc(C#N)cn2)n[nH]1 + COC1C(OC(N)=O)C(O)C(Oc2ccc3c(O)c(NC(=O)c4ccc(O)c(CC=C(C)C)c4)c(=O)oc3c2C)OC1(C)C
[reply] 89.2

----------
# Tested on: 299254-011-R-J1-PDC complex spheroid viability
# ASSAY_NOTES: Anticancer human tumor 299254-011-R-J1-PDC cell line growth inhibition [POLQ];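 further: spheroids exposed to drugs for one week before measurement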;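 on viability, T/C: percent viability relative to DMSO vehicle control taken as 100%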
# SETUP_CONDITIONS: second compound 3.16 µM; first compound 1 µM; stronger effect = lower value
Labelling field: enter label 1 if recorded viability, T/C is less than 60%. Enter label 0 if it equals or exceeds that cut-off.

molecule="CCc1cc2c(N3CCc4c(cc(Cn5ccnc5)cc4-c4cn(C)nc4C(F)(F)F)C3=O)cc(C)nc2c(OC)n1 + COC1C(OC(N)=O)C(O)C(Oc2ccc3c(O)c(NC(=O)c4ccc(O)c(CC=C(C)C)c4)c(=O)oc3c2C)OC1(C)C" group_label="label 0"
molecule="CC1COCCN1c1cc(-c2ccnn2C)c2ccnc(-c3ccn[nH]3)c2n1 (stereo not given) + Nc1ccc(C#CCN(C(=O)Cc2ncc(C(F)(F)F)cc2C(F)(F)F)c2ccc(F)cc2)nn1" group_label="label 1"
molecule="COc1cc(C2c3cc4c(cc3C(OC3OC5COC(C)OC5C(O)C3O)C3COC(=O)C23)OCO4)cc(OC)c1O (stereo not given) + Nc1ccc(C#CCN(C(=O)Cc2ncc(C(F)(F)F)cc2C(F)(F)F)c2ccc(F)cc2)nn1" group_label="label 0"
molecule="Nc1ccn(C2OC(CO)C(O)C2(F)F)c(=O)n1 (stereo not given) + Nc1ccc(C#CCN(C(=O)Cc2ncc(C(F)(F)F)cc2C(F)(F)F)c2ccc(F)cc2)nn1" group_label="label 1"
molecule="COc1cc(C2c3cc4c(cc3C(OC3OC5COC(C)OC5C(O)C3O)C3COC(=O)C23)OCO4)cc(OC)c1O (stereo not given) + COC1C(OC(N)=O)C(O)C(Oc2ccc3c(O)c(NC(=O)c4ccc(O)c(CC=C(C)C)c4)c(=O)oc3c2C)OC1(C)C" group_label="label 0"
molecule="O=C(Nc1ccc(O)c(NS(=O)(=O)c2ccc(F)cc2)c1)c1ccc(-c2ccccc2)cc1 + Nc1ccc(C#CCN(C(=O)Cc2ncc(C(F)(F)F)cc2C(F)(F)F)c2ccc(F)cc2)nn1" group_label="label 0"
molecule="C=CCn1c(=O)c2cnc(Nc3ccc(N4CCN(C)CC4)cc3)nc2n1-c1cccc(C(C)(C)O)n1 + Cc1cccc(N(C)C(=O)C2C(O)CCN2c2nc(C)cc(C(F)(F)F)c2C#N)c1" group_label="label 0"
molecule="CC1COCCN1c1cc(-c2ccnn2C)c2ccnc(-c3ccn[nH]3)c2n1 (stereo not given) + Cc1cccc(N(C)C(=O)C2C(O)CCN2c2nc(C)cc(C(F)(F)F)c2C#N)c1" group_label="label 1"

[ask] Quick check: viability, T/C of CCc1c2c(nc3ccc(O)cc13)-c1cc3c(c(=O)n1C2)COC(=O)[C@]3(O)CC + COC1C(OC(N)=O)C(O)C(Oc2ccc3c(O)c(NC(=O)c4ccc(O)c(CC=C(C)C)c4)c(=O)oc3c2C)OC1(C)C under 60%?
[reply] label 1

[ask] Given CC1COCCN1c1cc(C2(O)CC3CCC(C2)O3)c2cnn(-c3ccn[nH]3)c2n1 (stereo not given) + Cc1cccc(N(C)C(=O)C2C(O)CCN2c2nc(C)cc(C(F)(F)F)c2C#N)c1 , is recorded viability, T/C strictly lower than 60%?
[reply] label 1

----------
# Test system: 299254-011-R-J1-PDC complex spheroid viability
# ASSAY_NOTES: Anticancer human tumor 299254-011-R-J1-PDC cell line growth inhibition [POLQ];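 further: spheroids exposed to drugs for one week before measurement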
# SETUP_CONDITIONS: curve of first compound; second compound 1 µM
Collected IC50 values appear next to each entry.

Worked examples follow.
compound="COc1cccc2c1C(=O)c1c(O)c3c(c(O)c1C2=O)CC(O)(C(=O)CO)CC3OC1CC(N)C(O)C(C)O1 (stereo not given) + COC1C(OC(N)=O)C(O)C(Oc2ccc3c(O)c(NC(=O)c4ccc(O)c(CC=C(C)C)c4)c(=O)oc3c2C)OC1(C)C" reported_measurement="0.909 µM"
compound="CCc1cc2c(N3CCc4c(cc(Cn5ccnc5)cc4-c4cn(C)nc4C(F)(F)F)C3=O)ccnc2c(OC)n1 + Nc1ccc(C#CCN(C(=O)Cc2ncc(C(F)(F)F)cc2C(F)(F)F)c2ccc(F)cc2)nn1" reported_measurement="> 10 µM"
compound="COc1cc(C2c3cc4c(cc3C(OC3OC5COC(C)OC5C(O)C3O)C3COC(=O)C23)OCO4)cc(OC)c1O (stereo not given) + Nc1ccc(C#CCN(C(=O)Cc2ncc(C(F)(F)F)cc2C(F)(F)F)c2ccc(F)cc2)nn1" reported_measurement="> 10 µM"
compound="CCCS(=O)(=O)Nc1ccc(F)c(C(=O)c2c[nH]c3ncc(-c4ccc(Cl)cc4)cc23)c1F + Cc1cccc(N(C)C(=O)C2C(O)CCN2c2nc(C)cc(C(F)(F)F)c2C#N)c1" reported_measurement="9.29 µM"
compound="O=c1[nH]cc(F)c(=O)[nH]1 + Cc1cccc(N(C)C(=O)C2C(O)CCN2c2nc(C)cc(C(F)(F)F)c2C#N)c1" reported_measurement="> 10 µM"

[ask] Lab note: need IC50 with 299254-011-R-J1-PDC complex spheroid viability for entry COc1cc(C2c3cc4c(cc3C(OC3OC5COC(C)OC5C(O)C3O)C3COC(=O)C23)OCO4)cc(OC)c1O (stereo not given) + COC1C(OC(N)=O)C(O)C(Oc2ccc3c(O)c(NC(=O)c4ccc(O)c(CC=C(C)C)c4)c(=O)oc3c2C)OC1(C)C , please look it up.
[reply] 9.93 µM

[ask] Write down the reported IC50 of CCc1c2c(nc3ccc(O)cc13)-c1cc3c(c(=O)n1C2)COC(=O)[C@]3(O)CC + Nc1ccc(C#CCN(C(=O)Cc2ncc(C(F)(F)F)cc2C(F)(F)F)c2ccc(F)cc2)nn1 , test system: 299254-011-R-J1-PDC complex spheroid viability.
[reply] > 1 µM

----------
# Test system: 299254-011-R-J1-PDC complex spheroid viability
# ASSAY_NOTES: Anticancer human tumor 299254-011-R-J1-PDC cell line growth inhibition [POLQ];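 further: spheroids exposed to drugs for one week before measurement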
# SETUP_CONDITIONS: curve of first compound; second compound 3.16 µM
ASSAY_METRIC: IC50

Check out these entries, answers already filled in.
molecule="COc1cccc(OCCCN)c1-c1cc(Nc2cnc(C#N)cn2)n[nH]1 + COC1C(OC(N)=O)C(O)C(Oc2ccc3c(O)c(NC(=O)c4ccc(O)c(CC=C(C)C)c4)c(=O)oc3c2C)OC1(C)C" reported_measurement="0.0845 µM"
molecule="CC(C)n1c(=O)n(C)c2cnc3cc(F)c(-c4ccc(OCCCN5CCCCC5)nc4)cc3c21 + Cc1cccc(N(C)C(=O)C2C(O)CCN2c2nc(C)cc(C(F)(F)F)c2C#N)c1" reported_measurement="> 10 µM"
molecule="CCc1cc2c(N3CCc4c(cc(Cn5ccnc5)cc4-c4cn(C)nc4C(F)(F)F)C3=O)cc(C)nc2c(OC)n1 + Cc1cccc(N(C)C(=O)C2C(O)CCN2c2nc(C)cc(C(F)(F)F)c2C#N)c1" reported_measurement="> 10 µM"
molecule="C#Cc1c(F)ccc2cc(O)cc(-c3ncc4c(N5CC6CCC(C5)N6)nc(OCC56CCCN5CC(F)C6)nc4c3F)c12 (stereo not given) + COC1C(OC(N)=O)C(O)C(Oc2ccc3c(O)c(NC(=O)c4ccc(O)c(CC=C(C)C)c4)c(=O)oc3c2C)OC1(C)C" reported_measurement="> 10 µM"
molecule="CC(=O)O[C@H]1C(=O)[C@@]2(C)[C@H]([C@H](OC(=O)c3ccccc3)[C@]3(O)C[C@H](OC(=O)[C@H](O)[C@@H](NC(=O)c4ccccc4)c4ccccc4)C(C)=C1C3(C)C)[C@]1(OC(C)=O)CO[C@@H]1C[C@@H]2O + COC1C(OC(N)=O)C(O)C(Oc2ccc3c(O)c(NC(=O)c4ccc(O)c(CC=C(C)C)c4)c(=O)oc3c2C)OC1(C)C" reported_measurement="0.124 µM"
molecule="COc1cc(C2c3cc4c(cc3C(OC3OC5COC(C)OC5C(O)C3O)C3COC(=O)C23)OCO4)cc(OC)c1O (stereo not given) + Nc1ccc(C#CCN(C(=O)Cc2ncc(C(F)(F)F)cc2C(F)(F)F)c2ccc(F)cc2)nn1" reported_measurement="> 10 µM"
molecule="CCc1c2c(nc3ccc(O)cc13)-c1cc3c(c(=O)n1C2)COC(=O)[C@]3(O)CC + Nc1ccc(C#CCN(C(=O)Cc2ncc(C(F)(F)F)cc2C(F)(F)F)c2ccc(F)cc2)nn1" reported_measurement="> 1 µM"
molecule="C=CC(=O)N1CCN(c2nc(=O)n(-c3c(C)ccnc3C(C)C)c3nc(-c4c(O)cccc4F)c(F)cc23)C(C)C1 (stereo not given) + Nc1ccc(C#CCN(C(=O)Cc2ncc(C(F)(F)F)cc2C(F)(F)F)c2ccc(F)cc2)nn1" reported_measurement="> 10 µM"
molecule="COc1cc(C2c3cc4c(cc3C(OC3OC5COC(C)OC5C(O)C3O)C3COC(=O)C23)OCO4)cc(OC)c1O (stereo not given) + Cc1cccc(N(C)C(=O)C2C(O)CCN2c2nc(C)cc(C(F)(F)F)c2C#N)c1" reported_measurement="> 10 µM"

Now consider the entry below.
[ask] What is its IC50 for 299254-011-R-J1-PDC complex spheroid viability? Entry: Nc1ccn(C2OC(CO)C(O)C2(F)F)c(=O)n1 (stereo not given) + Cc1cccc(N(C)C(=O)C2C(O)CCN2c2nc(C)cc(C(F)(F)F)c2C#N)c1
[reply] 0.0418 µM
